Where these numbers come from: patent US20210340130A1

- assay_remarks: Phase 1 studies (safety, tolerability, pharmacokinetics)
- Assay type: in vivo
- assay_context: human, in vivo; read-out: elimination half-life (t1/2)
property_label: half-life

Q) For the compound O=C(c1ccc2nonc2c1)N1CCOCC1 [CX717, 1-(benzofurazan-5-ylcarbonyl)morpholine] , give its measured half-life value.
A) 9 to 10 h
